biological target: T1, Human TMPRSS2 recombinant protein, extracellular region (N-terminal His tag, C-terminal Strep-tag II) (human, UniProt O15393 106-492); assay: SPR (BIAcore); rounded repeat of Table 1
T1 construct: also called Human TMPRSS2 recombinant proteins; extracellular region of human TMPRSS2
T1 sequence (O15393 other isoform, or with tags, fused parts or gaps limits assumed): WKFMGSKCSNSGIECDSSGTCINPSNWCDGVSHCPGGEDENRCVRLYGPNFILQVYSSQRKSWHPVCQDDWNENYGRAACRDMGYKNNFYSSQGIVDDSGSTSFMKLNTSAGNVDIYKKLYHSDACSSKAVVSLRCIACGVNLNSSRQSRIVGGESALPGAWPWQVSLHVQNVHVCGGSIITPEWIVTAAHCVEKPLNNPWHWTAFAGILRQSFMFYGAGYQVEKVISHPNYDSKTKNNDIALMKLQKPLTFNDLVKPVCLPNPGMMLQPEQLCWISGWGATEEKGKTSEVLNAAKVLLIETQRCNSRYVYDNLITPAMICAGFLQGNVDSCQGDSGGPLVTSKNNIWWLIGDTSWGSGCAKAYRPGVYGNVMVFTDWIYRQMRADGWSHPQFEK
readout name: pKd
Answer as the number alone; pKd is minus log10 of concentration in mol/L.

Quickly give me recorded pKd for 2114_16 antibody (antibody, V domains shown, also called 2114 antibody) VH: EVQLQQSGPELVKPGASVKISCKASGYTFTDYYMNWVKRRHGKSLEWIGNINPNNGGTSYNQKFKGKATLTVDKSSSTAYMELRSLTSEDSVVYYCAREGDLFPFAYWGQGTLVTVSA VL: QAVVTQESALTTSPGETVTLTCRSSIGTVTTSNFANWVQEKPDHLFTGLIGASNNRAPGVPARFSGSLIGDKAALTITGAQTEDEAIYFCALWFSNHWVFGGGTKLTVL
9.00
